The reported numbers originate from PubChem BioAssay (NCI).

tested on: HOP-18 NSCLC; assay: NCI tumour cell line growth inhibition, 48 h
quantity: TGI (µM)
Express the result in µM but write the number alone.

Read the entry Cc1cccc2cc3cccc(C(=O)NCCN(C)C)c3nc12 and write its reported TGI.
9.35

Fill in reported TGI for this entry: O=C(Nc1ccccc1[N+](=O)[O-])C(=O)C(C(=O)c1ccccc1-c1ccccc1)C1OC(=O)c2ccccc21 (stereo not drawn)
31.6

Give the value of TGI reported for the following: CN(C)CCC(/C=C/c1ccccc1)=N\Nc1ccc(Cl)cc1
17

Identify TGI associated with the compound O=C1c2ccccc2C(=O)c2sc(Nc3ccc(Cl)cc3)nc21
7.26

----------
Provide the reported TGI of each item.
test system: HL-60(TB) leukemia; assay: NCI tumour cell line growth inhibition, 48 h

Return value of TGI for input COC(=O)/C(C#N)=C(/NCc1ccccc1)Nc1ccccc1 , no commentary.
> 100 µM

Query TGI for CC(=O)C(N=NC1CCC(S(=O)(=O)NB2N=CS2)CC1)C(=O)Nc1ccccc1C (stereo unspecified)
> 100 µM

Identify measured TGI associated with CC(=O)Oc1ccccc1C(=O)NCCC[Se]C#N
5.49 µM

Using the record for C/C(=C1/N=C(c2ccccc2)OC1=O)c1ccccc1 , state its measured TGI.
> 100 µM

Please give the documented TGI of COc1ccc(OC2OC(CO)C(O)C(O)C2O)cc1 (stereo unspecified)
> 100 µM

Could you please provide reported TGI for O=C1OC(C2Cc3ccc4c(c3C2=O)CCCC4)c2ccccc21 (stereo unspecified) ? Thanks!
> 100 µM

Please give measured TGI of the following entry: O=C([CH-]C(=O)c1ccccc1)c1ccccc1.[CH3-].[CH3-].[CH3-].[Sn+4]
16 µM

Return reported TGI. Input compound: C=C1[C@@H](O)C[C@H]2C(C)(C)C[C@H](Cl)C[C@]2(C)[C@H]1C[C@H](O)[C@H]1CC(=O)NC1=O
0.0547 µM

Give the reported value of TGI for this record: C=C[Si](C)(C)COC(=O)/C(C#N)=C/C=C/c1ccccc1
> 100 µM

Let me know recorded TGI for CCCC(CCC)Oc1ccc(CCCC2=C(O)c3ccccc3C(=O)C2=O)cc1 , thanks.
6.27 µM

Please indicate TGI recorded for Cc1ccc(S(=O)(=O)OI(O)CC(F)(F)F)cc1
> 100 µM

----------
test system: HCT-15 colon; test: NCI tumour cell line growth inhibition, 48 h; in the data active = GI50 below about 0.43 µM; inactive = the rest
Outcome field: choose from active, inactive

Called result for Cc1ccc(S(=O)(=O)N[C@@H](Cc2ccccc2)C(=O)CCl)cc1
inactive

So what was the verdict on C[C@@H]1CC[C@@H]2[C@@H]1[C@H](OC(=O)c1ccc3ccccc3c1)[C@]1(C3CCCCC3)C[C@@H](OC(=O)CO)[C@@]2(C)O1 in this test?
inactive

Tell me the recorded outcome of this test for CCOc1ccc2c(c1)C(=O)c1c-2n(CCCN)c(=O)c2cc([N+](=O)[O-])ccc12 .
active

Per the assay record, what outcome was assigned to Cc1ccc(N(/C=C/C(=O)C(F)(F)F)CC(=O)c2ccc(Cl)c(Cl)c2)cc1 ?
inactive

Status in this test for C=C1C(=O)O[C@H]2[C@H]1CC/C(COC(=O)C(=O)c1c[nH]c3ccc(Cl)cc13)=C\CC[C@@]1(C)O[C@@H]21 ?
active

Field: outcome | Entry: CC(=O)OC1CC2(O)C(CCC3(C)C(c4ccc(=O)oc4)CCC32O)C2(C)CCC(OC3OC(CO)C(O)C(O)C3O)C=C12 (stereo not given)
active

Can you look up the reported call for CCCC(CCC)Oc1ccc(CCCC2=C(O)c3ccccc3C(=O)C2=O)cc1 for me?
inactive

Tell me the assay call for OCc1ncc(-c2ccccc2)s1 please.
inactive

Recorded test call requested for COc1cc2oc(-c3cccc(C(=O)Nc4ccc(C)cc4)c3)cc(=O)c2c(OC)c1OC
inactive

What was the test verdict on CC1=C/C(O)CC(=O)Cc2nc(co2)C(=O)N2CCC=C2C(=O)OC(C(C)C)C(C)/C=C\C(=O)NC/C=C\1 (stereo not given) ?
inactive

----------
system: SK-MEL-2 melanoma; test: NCI tumour cell line growth inhibition, 48 h
quantity: TGI

Annotate the compound O=c1[nH]cc(COCC(O)CO)c(=O)[nH]1 (stereo unspecified) with its measured TGI.
> 100 µM

Recall and state the measured TGI for CCCCCCCCc1ccc(CCC(N)(CO)CO)cc1 .
3.76 µM

Return reported TGI. Input compound: O=C1O/C(=C\C=C\CO)C=C1/C=C/CO
43.4 µM

Determine its reported TGI: O=C(/C=C/c1ccc(O)cc1)c1cc(-c2cc(CCC(=O)c3ccc(O)cc3O)ccc2O)c(O)cc1O
> 50 µM

Provide one value: measured TGI of CC1(C)Cc2nnsc2C2=C1C(=O)CCS2
> 100 µM

Identify the reported TGI for the following entry. COc1cc(/C=C2\C(=O)N(c3ccc(NC(C)=O)cc3)C(c3ccccc3)S2(=O)=O)cc(OC)c1OC (stereo unspecified)
> 100 µM

Input Cc1ccccc1C1CC(=O)CC(c2ccccc2C)C12C(=O)NC(=S)NC2=O (stereo unspecified) , output reported TGI.
40.3 µM

Give the reported TGI for this compound. OCC#CCCCCOCC#Cc1ccccc1C#CCOCCCCC#CCO
> 100 µM

Assign TGI to the following record: CC1(C)N([O-])[N+](=O)C1(Br)c1ccccc1 (stereo unspecified)
> 100 µM

Input O=C([CH-]C(=O)c1ccccc1)c1ccccc1.[CH3-].[CH3-].[CH3-].[Sn+4] , output reported TGI.
56.9 µM

Return reported TGI. Input compound: Cc1ccccc1NC(=O)C(=O)CC(=O)C1CCOC1=O (stereo unspecified)
> 100 µM

----------
test system: SNB-78 CNS; test: NCI tumour cell line growth inhibition, 48 h
Could you please report measured TGI for the items listed next?

Return TGI (reported value) for this compound: O=c1[nH]cc(COCC(O)CO)c(=O)[nH]1 (stereo not given)
> 100 µM

Give recorded TGI. O=[N+]([O-])c1cc(Cl)ccc1S(=O)(=O)c1ccc(Cl)cc1[N+](=O)[O-]
34.7 µM

Answer with the recorded TGI of Cc1cc(Cl)cc2c1NC(=O)C2(O)CC(=O)c1ccc(F)cc1 (stereo not given) only.
> 100 µM

Entry COc1ccc(/C(=C\c2cc(OC)c(OC)c(OC)c2)C(=O)O)cc1 needs its TGI filled in; supply it.
> 100 µM

Retrieve TGI measured for NCCn1cnc2nc(NC(=O)c3ccccc3)[nH]c(=O)c21 and print it.
> 100 µM

Assign TGI to the following record: CC1NCCc2c1[nH]c1cc(O)ccc21 (stereo not given)
> 100 µM

Return value of TGI for input NC1=NCC(c2ccccn2)C1c1ccc(F)cc1 (stereo not given) , no commentary.
> 100 µM

// Input: C/C(=C(/C)c1cc[n+](C)cc1)c1cc[n+](C)cc1 . Output its TGI only.
> 75 µM

Provide only the value of recorded TGI for OCCSCC/C(=N\N=C(/CCSCCO)c1ccccc1)c1ccccc1
> 100 µM

Hello, please tell me recorded TGI for this one: O=C(Nc1ccccc1[N+](=O)[O-])C(=O)C(C(=O)c1ccccc1-c1ccccc1)C1OC(=O)c2ccccc21 (stereo not given)
> 100 µM

----------
Field: TGI. Provide a value for each of the compounds that follow.
system: CAKI-1 renal; assay: NCI tumour cell line growth inhibition, 48 h
*1 amine or outer side, *2 acyl side, *3 side chain or, on linkers, in order; H or OH if unused. Where a SMILES comes first, the peptide text is derived from it. Bridges are numbered along the chain shown (N, C = ends). [ ]: non-standard residue; d: D form. X59 = COc1c(N[*:1])cccc1C(=O)O[C@H](C(=O)[C@H](C)C(=O)[*:2])C(C)C; X58 = CC(C)C[C@H](C(=O)[*:2])C(C)C(=O)C1CCCN1[*:1]; NMeY = CN[C@@H](Cc1ccc(O)cc1)C(=O)O; Lac = C[C@H](O)C(=O)O

Answer with the recorded TGI for the compound listed here: C[N+]1(C)C/C(=C\c2ccc(O)cc2)C(=O)/C(=C/c2ccc(O)cc2)C1
> 100 µM

Return reported TGI. Input compound: Cc1cccc(/C=C2/C(=O)Nc3ccccc32)n1
37.8 µM

Read the entry O=C(/C=N/O)Nc1ccc(Cl)c(I)c1 and write its reported TGI.
45.2 µM

Identify TGI associated with the compound CCCCCCCC(=O)NS(=O)(=O)c1ccccc1
> 100 µM

Give TGI for the following compound: O=c1[nH]c2cc3[nH]c(=O)c(=O)[nH]c3cc2[nH]c1=O
> 100 µM

Answer with reported TGI of CN(N=O)C(=O)Nc1ccc(C(=O)O)cc1
> 100 µM

Name the recorded TGI of the compound listed here: Oc1c(Cl)cc(CN(Cc2cc(Cl)c(O)c(Cl)c2)C2CCCCC2)cc1Cl
> 100 µM

Please report TGI for the following compound: C[CH2][Ge]([CH2]C)([CH2]C)[O]C(=O)C([O][Ge]([CH2]C)([CH2]C)[CH2]C)c1ccccc1 (stereo not given)
44.9 µM

Quick one: give measured TGI for CCOc1ccc(N=Nc2ccc(-c3ccc(N=Nc4c(O)ccc5cc(S(=O)(=O)O)cc(S(=O)(=O)O)c45)cc3)cc2)cc1
> 100 µM

Using known records, supply TGI for C=C(C[C@@H](O)[C@H](C)NC(=O)OCc1ccccc1)C(=O)OC(C)(C)C
> 100 µM

Give the value of TGI reported for the following: O=C(CSc1nc2ccc(I)cc2c(=O)n1Cc1ccccc1)NN1C(=O)CSC1c1ccccc1 (stereo not given)
10.9 µM

Provide only the value of recorded TGI for O=c1[nH]cc(COCC(O)CO)c(=O)[nH]1 (stereo not given)
> 100 µM

Look up and state reported TGI for O=C(c1ccccc1)c1ccc(O)c2ncccc12
6.3 µM

Let me know recorded TGI for COCCNC1CCC(=O)c2[nH]c3ccccc3c21 (stereo not given) , thanks.
> 100 µM

Give the value of TGI reported for the following: NC(=S)N/N=C1\CC(c2ccccc2)Nc2ccccc21 (stereo not given)
> 100 µM

Name the recorded TGI of the item COc1ccc(C[C@H]2C(=O)O[C@H](C)[C@H](NC(=O)[C@@H](CC(C)C)C(C)C(=O)C3CCCN3C(=O)[C@H](C)O)C(=O)Nc3cccc(c3OC)C(=O)O[C@@H](C(C)C)C(=O)[C@H](C)C(=O)N[C@@H](CC(C)C)C(=O)N3CCC[C@H]3C(=O)N2C)cc1 (stereo not given in full) (H-[Lac][X58]T[X59]LP[NMeY](Me); ester 3-C) in your answer.
> 12.5 µM

Note down TGI recorded for Cc1ncc(COP(=O)(O)O)c(C)c1O
> 100 µM

For the compound CCCC(CCC)Oc1ccc(CCCC2=C(O)c3ccccc3C(=O)C2=O)cc1 , give its measured TGI value.
8.66 µM

Fill in reported TGI for this entry: CC(C)(C)OC(=O)NC(Cc1ccc(OCc2ccccc2)cn1)C(N)=O (stereo not given)
> 100 µM

Give the value of TGI reported for the following: N=C1N=C(N)S/C1=C\c1ccc2ncccc2c1
> 25 µM

Look up TGI of CC1CN=C(NS(=O)(=O)c2cc(C(=O)Nc3ccccc3)c(Cl)cc2S)NN1 (stereo not given) and report it.
> 100 µM

Specify reported TGI for the compound shown: N#CSCC1CC(O)(c2ccccc2)CC(c2ccc(Cl)cc2)O1 (stereo not given)
9.51 µM

Consider the compound COc1cccc(N2C(=O)C3c4[nH]c5ccc(C)cc5c4C4CCC(C)CC4C3C2=O)c1 (stereo not given) and give its recorded TGI.
> 100 µM

Identify measured TGI corresponding to COC1C(O)CC(OC2CC(OC3CC(O[C@@H]4C(=O)c5c(cc6cc(OC7CC(OC8CC(O)C(O)C(C)O8)C(O)C(C)O7)c(C)c(O)c6c5O)C[C@H]4[C@H](OC)C(=O)[C@@H](O)[C@@H](C)O)OC(C)C3O)OC(C)C2O)OC1C (stereo not given in full)
> 100 µM

Determine its reported TGI: COc1ccc(OC)c([N+](=O)[O-])c1-c1nc2sc(C)c(C)n2c1/C=N/N=C(N)N
> 100 µM

Write down TGI measured for item Cc1c(-c2ccccc2)c(C#N)c2nnn(C)c(=O)n12
> 100 µM

Give the reported TGI for this compound. COc1cc(/C=C2\CCCC3=C2N=C2SC(C)=CN2C3c2cc(OC)c(OC)c(OC)c2)cc(OC)c1OC (stereo not given)
> 100 µM

Please give measured TGI of the following entry: O=C1O/C(=C\C=C\CO)C=C1/C=C/CO
28.3 µM

Check the records and state TGI for CC(C)(C)OC(=O)NC(Cc1ccc(OCc2ccccc2)cn1)C(=O)O (stereo not given)
> 100 µM

Please look at this compound and report its TGI: CCOC(=O)C1=C(C)N(NC(=O)OC)C2(N)N(NC(=O)OC)C(C)=C(C(=O)OCC)C12C#N (stereo not given)
> 100 µM

Indicate its recorded TGI; the compound in question is CCC1(CC)C(=O)NN(C(=O)c2ccc(Cl)cc2)C1=O
> 100 µM

Specify TGI for CCOc1ccc2c(c1)C(=O)c1c-2n(CCCN)c(=O)c2cc([N+](=O)[O-])ccc12 and stop.
1.14 µM

Hello, please tell me recorded TGI for this one: Brc1ccc(N=Nc2ccc3ccccc3n2)cc1
47 µM

Provide only the value of recorded TGI for Cc1cccc(C)c1NC(=O)CCCC(=O)C(C#N)c1ccc(Cl)cc1 (stereo not given)
> 100 µM

Return reported TGI. Input compound: CCOC(=O)C(C)c1nc2cc(C(F)(F)F)ccc2[nH]c1=O (stereo not given)
> 100 µM

Please give measured TGI of the following entry: CN(C)CCCN1c2ccc(O)cc2Sc2ccc(Cl)cc21
16 µM

Report TGI, nothing else, for this compound: CC(=O)OCC1OC(n2c(=S)n(-c3ccccc3)c(=O)c3cc(Br)ccc32)C(OC(C)=O)C(OC(C)=O)C1OC(C)=O (stereo not given)
> 100 µM

Please report the measured TGI for CCOc1ccc(NC(=O)c2cc3ccccc3cc2O)cc1
> 100 µM

Give the measured TGI for O=C(Nc1nc(-c2ccccc2)cs1)c1cc(O)c(O)c(O)c1
16.6 µM

Name the recorded TGI of the item Cc1ccc(/C=C2\CCCCCC2=O)cc1 in your answer.
> 100 µM
